meta.source: a protein production outcome set (Wang et al. 2014)

experiment: label from the status in PepcDB records;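 note: failed if final PepcDB status was selected cloned or expressed and not failed if soluble or beyond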
readout: protein production

MSIFNKDALSSFFGLSGEEDDYYDNYEEYEERKAVNEPPRRAARPKPQRPVQQQESYSQPAYTQQSEPVVEKPSARYRSAEAHQERDTQQAAYTEKKVVSMRSSNQSATTNTRRAQESTANAKTHKITIIEPRVYSEAMSIAKHLFAEEAVLVNFTLVEEDQARRIVDFLTGTVYALDGDIQRVGNEIFLCTPANMEIDSATAQSLANKQFFDFLEHHHHHH: failed
MMIGENKNRPHPTIHIPQWDQINDPTATISSPFSSVNLNSVNDYPHSPSPYLDSFASLFRYLPSNELTNDSDSSSGDESSPLTDSFSSDEFRIYEFKIRRCARGRSHDWTECPFAHPGEKARRRDPRKFHYSGTACPEFRKGSCRRGDSCEFSHGVFECWLHPSRYRTQPCKDGTSCRRRICFFAHTTEQLRVLPCSLDPDLGFFSGLATSPTSILVSPSFSPPSESPPLSPSTGELIASMRKMQLNGGGCSWSSPMRSAVRLPFSSSLRPIQAATWPRIREFEIEEAPAMEFVESGKELRAEMYARLSRENSLG: failed
ISSDEALKLIKEQPQLFDEYHDGFRSQVQAWPENPVDVFVDQIRYRCMKPVNAPGGLPGLKDSKEIVIADMGCGEAQLALEINNFFKNYNKKAKKYLKRRHKVHSFDLKKANERITVADIRNVPLPDESCTIVVFCLALMGTNFLDFIKEAYRILAPRGELWIAEIKSRFSDGKGNEFVDALKLMGFFHKKTFDENKMFTRFEFFKPPAEIIEERRQ: failed
MEIINLTYIPLGVYNYYKSNNQEVKMQTIDISELELLTESENPVIVDVREDFEYNSGHVPNAKNIPLSQLEERYAEITDGTYLICQSGARSARACQYLSTKGIDTINISGGTIAWNGP: failed
MMPYITDIAALEHVGVAAAWTEKVPAFRVLREKRMLDFRAPITVITGENGVGKSTLLEAIAINAGFDTAGGEHTGKFKPSDNPLQTVAKAHKGKEPMRGYFLRAETHFNVASGYRDEAPGWVNLHHMSHGESVMHIVQNAFVGKGLYLMDEPEAGLSFIRQMAILAELNFLAESGAQIIIVTHSPVLMAIPGAEIWEFSASGELHRGFDFEVTTAFRALRDFFEDPEEIAEYMMDVMMDNKGESLEHHHHHH: failed

Q. Name the reported protein production value associated with the sequence MNFDSYIFDFDGTLIDTTTCHVKATQSAFKRLNLDEPTEQAILHTYHLNLYNNFKALASHELSFYQIEKLIDEYNHCFSNDEIHQSKEYTGISEVLKFLHNQKKKIFVVSNKETLTTQKYLDYLGLSRFITDSLGVCIKNEDKLLCETIQNLIQKHHLMIGKTVYIGDTAQDIKSANQAHVQTCAVTWGAQSAHELLHEDPHYVVNDPEEFLTIL
A. failed

* * *

experiment: label from the status in PepcDB records
readout: protein production

Below are worked cases with known answers.
MIRKWDTKDTAPLLALWLDSTIHAHPFISESYWRDSVAVVRDVYLPAASTWVWEQDGELKGFVSVLDSRFVGALFVAPGATRQGIGRALLDEVKQHYAWLSLEVYQKNESAVSFYHAQGFRIEDCAWQDDTQHPTWIMRWPA: not failed
MNREELFDVTVIGGGPAGLYSAFYSGLREMKTKIIEFQPQLGGKIHVYPEKMIWDIGGLLPVTGEKLIEQLVQQGLTFQPEVVLNTKIESIIRNKDGIFTLKTSTGEEHFSKTVIVATGSGILNPQKLSIEGAERFEVSNLNYTVKSLKRFKNKTVIISGGGNSAIDWANELEPIAKKVYLTYRKEELSGHEAQVKQLMNSSAECFFNTSITTLIAGDNHEAIEYVELTNHETGEVSQLAIDEVIINHGYERDITLLENSELDVAIIDNYYIAGNANSESSVDGLYAAGDILKHEGKLHLIAGAFQDAGNAVNKAKQFIQPDASEYGMVSSHNEVFKKRNRELIKQMMK: failed
MWHSIEQAISVETGKSFYISEKKEISTRPASSSSFTCSYDNKEPPPNLSFKITDGHRSYFLKINNKDYLENFQAEAYSLKQLNSLANIASPNVTAIGTSLDKSFLVLDYIDFSKAKPMLWYQLGQQLAQMHYENRHGQFGWQHDNFIGSTIQPNHWSSNWTTFFSDQRIAWQLQLLSERSIMLGNIEHITQVCHDALLHHQVSPCLVHGDLWQGNTGFSGEKAMIFDPACYYGDREVDIAMTELFGHFPDDFYHGYQAEYPLDDGYEQRKLVYNFYHILNHANIFGGIYIDQAKATLSRIMSLPLHLEHHHHHH: failed
MRLRLLSLPFILSLCAPLLPLNTLAAERIVTIGGDVTEIAYALGAGDEIVARDSTSQQPQAAQKLPDVGYMRTLNAEGILAMKPTMLLVSELAQPSLVLTQIASSGVNVVTVPGQTTPESVAMKINAVATALHQTEKGQKLIEDYQQRLAAVNKTPLPVKVLFVMSHGGLTPMAAGQNTAADAMIRAAGGSNAMQGFSRYRPLSQEGVIASAPDLLLITTDGVKALGSSENIWKLPGMALTPAGKHKRLLVVDDMALLGFGLETPQVLAQLREKMEQMQ: failed
MIDLAVLPIYLTAVIALLLLPGPDMLLIASSSMSYGRKVGLFASLGNATSGLILTLLAAMGVSTLIAMSPVALKVLHLLGGAYLLKMGWDCLRAEASSAPELDQKNKMASTYYQRALMSNLLNPKALVFFVMFLPQFVSSNITASSGEQMLALGLLLNVLGLLFNLLLVALAGTLGKGLLENEKFRTYQHKLMGLVFVILALWMLSSFVL: failed

Proceeding to the next sequence to report its protein production.
Q. Could you tell me which protein production is on file for MQYIKIHALDNVAVALADLAEGTEVSVDNQTVTLRQDVARGHKFALTDIAKGANVIKYGLPIGYALADIAAGEHVHAHNTRTNL ?
A. not failed
